Sourced from the domain aggregation screens of Martell et al. (2025)

Procedure text: soluble fraction after stress (log2 fold change); higher = more stays soluble; pooled small domains, quantitative proteomics
Assay context: stress: 50 degC
Recorded endpoint: soluble fraction (log2)

Study these solved cases before continuing.
HMNKEKLLEMFESMSIIIVQSLEEKEQTEDRIETELFNEAKTPRYSTLTKQDIQSVIRNILITVGV = -1.84
HMHWDIAQADAKQEVMDSSDDKEAIERIQANMFKDPKDHDQEYANKILNDMIDEIKEKGLEAMQHKFAQE = -0.379
HMIMNDIQAKVLEIAETKDLGSITYYRLSKMLGVDHPYRVKYAIDKLIEKGLLTAKSDGSITKAI = -0.601
HMTNSAGIERFLASGAIDGVGPAMARRIVEHFGTEALRIIESVPHRLREISGIGPKTAEKIASSYMRQ = -0.689
HMDSILMPGVVNKELREALAILKNEGIGWADPEYASSTVTRNYVISTDPVEGIELAPGQKVRLVVSLGPKP = -0.00706

Take each entry in turn and give its soluble fraction (log2).
1. HMSPKYLELVRWINTQIQEKKLTAGQKMYSENELKEMFGVSRQTVRHAISVLEGEGMIRRVRGSGTYINDN
2. HMDDEAVQIMTLHISKGLEFDVVFALGLVSRTPESKEIEELEAEKQRQLYVAMTRAEKWLIVAA
3. HMSASTGTVSYKSGATTVWNSPSWHQVKRYVTFGDTVQLLGKTVDQNGATWYKVGDNQWIPELYLNVAG

1. -1.83
2. -0.12
3. -0.508

----------
Procedure text: soluble fraction after stress (log2 fold change); higher = more stays soluble; pooled small domains, quantitative proteomics
Assay context: stress: 50 degC
Recorded endpoint: soluble fraction (log2)
Numbers only.

Please supply soluble fraction (log2) for each of the following items, keeping them in order.
1. HMIKILGSAYRHGLDDDDILRAWNYHIQEFFEGEDPEKIVRLGFDTHGRLLEIGGEIYPGGGEKIFHAM
2. HMISKTFEINEDNINNRLDIFLANQFDNLSRGIVQKLIESHSVSVSGNFVEKDYKLKLGDIIDVEINLS
3. HMEFEIGQEDSKKSVKQFLYNTLRLSHGQVTALKRQERGILLNGERVFVTALLQEGDRLSLLLE
4. HMKAEKEIEKIKFTIYNEFKRKQEENHFLPPWDGTKMLRQFVLGVVANNPKYQHVNTDILYRDLLLLYYQ
5. HMLSYDDTVVIGRNLLENAMKQKNIALEQLTDEVLARLAKELQVESVEAMYAGIGSGKRPSSFIINRLEAH
6. HMLGYGEQEREAQKYLEMHTAFQADPSLQKMYLPENQYALISKVMEMTGIKNVKSYLTPPNEL
7. HMKQLIGYSVIDIKMGKLGEISFVNSKTAQALIHVSKDGKGFYFPWHKQFVKNIDAEKGIMEVEIPKEFLD

1. -0.729
2. -0.486
3. -0.342
4. -0.968
5. -0.569
6. -0.0174
7. -0.237

Reported soluble fraction (log2) for HMDLPATVPNLEGLTEVTARNKLTVAGLSLGEVKEVESDKEKGTVVGQSIAYGKRVTKGTKVDIEISSGK : what is it?
0.0361

----------
Procedure text: soluble fraction after stress (log2 fold change); higher = more stays soluble; pooled small domains, quantitative proteomics
Assay context: stress: 50 degC
Recorded endpoint: soluble fraction (log2)
Give bare numbers.

The cases that follow already have their soluble fraction (log2) on record.
HMDKLEKRILDYLLQKSAIDGSTILKISHREMAMDLGTAREVVTRILKKLETGGFVRQGENYLEILK = -0.145
HMQSKSEINELPKSIHMAFSPKNFELFIDNLKINEIDFSNWKGELNTIQERVDGQRQIWIQDPQGYWIEIN = -0.018

Field: soluble fraction (log2). Fill in for each record below.
1. HMVWINIRDLSDLFSKSGKSENSKNILDLQTLKIEKLLGGGQINTPYTIKVKQATPSAIEKVKQAGGEVIL
2. HMQDVVFTVDKDQTGAEIGDMLYEKGIISSPTTFRLALRLTGSMDKLQQGYYQIPQNASLRQVIALLQKG

-0.0218
-0.393

----------
Procedure text: soluble fraction after stress (log2 fold change); higher = more stays soluble; pooled small domains, quantitative proteomics
Assay context: stress: 50 degC
Short version: soluble fraction (log2) at least -0.9 is yes (1), less is no (0).

Previously resolved entries follow.
HMEQIPEEYKKIYSLITDIPININDIAKKSLLELREVSSKLTMLELDGKVVKLPGNMYIRGDL = yes (1)
HMKTMSLSSIEKAIYKTKYENEPTSQRLSRIESSVFGTNFSQDSESERIARISSAINAQKSAK = yes (1)
HMEKIIFEISEEGKRLDLYIAERTELTRTRIQQLIKDGNINVNNKKSKPSYKVEKNDFIEMIIPDE = yes (1)
HMSLTYTGKFILNHNNIDQSSFNINIYLVNKQTIIQITKPFYGNVLNIKFNEENDLIISPKQFS = yes (1)
HMPKNEHETKAIGNQTGGRVFLFLNTDNINRDYNMYISKQVKFVREISQEYYGKVAVFEDLYGNLWDLIE = yes (1)

Identify whether the reported soluble fraction (log2) of the following sequence is -0.9 or greater: HMGLIDNLTRIMEKKNISAYQLEKAGIVKQTTFTSWKKGTQPALDKIIKIMQYIEVTPNELFGY
no (0)

Reported soluble fraction (log2) reaches at least -0.9 for HMGGKWKAIIIYHLKNGPKRFGELRRALISSTETVLSNQLKQLEQDGLVSRQVFGTKPPLKTVYSLTDFG ?
no (0)

----------
Procedure text: soluble fraction after stress (log2 fold change); higher = more stays soluble; pooled small domains, quantitative proteomics
Assay context: stress: 50 degC
Task for the reader: assign each of the following sequences its reported soluble fraction (log2).
Answers are plain numbers.

Completed entries (count: 3):
HMIEEIAVPEILGMQEEEAKAKIEGLGLVFNVTDRVKSNEYEKGEVMYQSVGPDDTTVKSGYPINVTISEG = -0.0543
HMYEINEIIRERRLKKGLTQAQVAKYLGVSAPAVNKWEKGTTYPDLVLLPALARLLDTDLTTLLSF = -1.38
HMAEKRTAIITTARADIRQKPEATAPLAFEAVKDVVLELTDKPADGWVRVKHRDGSTGYIRINQI = 0.0711

Now consider a different sequence.
Give its soluble fraction (log2) value. Item: HMSNLVEVPAVIGRMKEDAITMLISAGLEPAVTYDEYPLVKENLVADQSVAPGQKVEKGSFVTITVSRS
-0.0475

----------
Procedure text: soluble fraction after stress (log2 fold change); higher = more stays soluble; pooled small domains, quantitative proteomics
Assay context: stress: 50 degC
Recorded endpoint: soluble fraction (log2)
Numbers only.

Example entries begin here.
HMEFPYISGVDVGTISNKEFARFETTKASDIVIALDKSGIPFSARFGDSEIVLTYDGSYKEEVEEIIAKV = 0.0138
HMNETHANKVYNFLKKKKKPLSAYEILKELASEGISAPTTIYRALNKLVSNGLIHKIESLNAWTV = 0.318
HMYAHLGKNLEVVINKALAQEDPEKKAGFAHHIAYYMKLAYSNWHKELVHDDAIRSELDTITGGELEFSN = 0.499

Here's the next entry for you.
Quick one: soluble fraction (log2) for HMSIQREIILEVIKNNRTHPTAEEIYILVTKKEPKISRSTVYRNINILVEKGIIEKITIATGPDRYDY ?
-1.4

----------
Procedure text: soluble fraction after stress (log2 fold change); higher = more stays soluble; pooled small domains, quantitative proteomics
Assay context: stress: 50 degC
Please provide measured soluble fraction (log2) for the entries that follow.
Numbers only.

Example results:
HMRLSPTMVETLIAMLNRNAYPAYENNSRTFASLEERGLIQPDIEGNWSLTDTGHQTALKLLK = 0.0915
HMYDNTVTKYVNSLSVYVRKGPSTSDEIVTSLIKDTDVTVVGENGEWYKIKYKEFEGYIYKNLLSDNKT = -0.254

Could you tell me soluble fraction (log2) for each of these sequences? They are listed below.
1. HMDIRVAHVDDDMSFGEAFAQARSQVGPGGVFEWHGKLYGTYTAEEWASMSPAERSQYQQAVFN
2. HMSLTEDELFHALTIYANREGINIGATELKYLLTHYARNLGKLIELINQVSQAATMQKKPITIPLIKHS
3. HMGELYGTDQYKDGDAQDTNIGKLLEVNIDGKWQVATTGTSRFEFAGVMDDNGHKLIMISVLPEAKTV
4. HMNVAVPTPADKRKVRVMKADINAKLRVNDANGAYAVYEELKEWVTLKGFTEWNDDLSKLSETMGSMKRKV
5. HMKTFQSYQTTSMSNVNLRKRANGTSTILKRIKVGDTVTVVGKSGNYYQIQFDGKEGYALIKYIDGTDSGA
6. HMFFFILNKGAKSGGEITHAVLNGSIVSKPAGWDAFHGLVLAKEKLSSEEIQRQMKELGVEMEIVPL

-0.0545
-0.428
-0.18
-0.0289
-0.247
-0.58
